- Target: UniProt P62942
- Procedure summary: Ki test procedure: inhibition of peptidyl-prolyl isomerase (rotamase) activity, chymotrypsin-coupled assay
- Assay type: biochemical
- Run parameters: apparent Ki, rotamase inhibition; read-out: Ki
pKi: −log10 of the molar value.
Documented pKi across a set of compounds

Query: For CCC(C)(C)NC(=O)N1CCCC1C(=O)SCCc1ccccc1 (stereo not drawn) , what is its reported pKi?
Reply: 6.70 to 7.29

Query: For CCC(C)CNC(=O)N1CCC[C@H]1C(=O)SCCCc1cccnc1 (stereo partly drawn) , what is its reported pKi?
Reply: 7.30 to 9.00

Query: For CCC(C)(C)NC(=O)N1CCC[C@H]1C(=O)SCCCc1cccnc1 , what is its reported pKi?
Reply: 6.70 to 7.29

Query: For COc1ccc(CCCSC(=O)C2CCCCN2C(=O)NC2CCCCC2)cc1 (stereo not drawn) , what is its reported pKi?
Reply: 6.70 to 7.29

---

- Test system: retinal ganglion cell axons
- Procedure summary: Protection of retinal ganglion cell axons from degeneration following optic nerve transection (Table V)
- Type: in vivo
- Run parameters: ± SEM
Documented RT97-RGC axon density 11 days after ON transection (36 ON axon rescued) across a set of compounds

Query: For CCC(C)(C)C(=O)C(=O)N1CCC[C@H]1C(=O)CCCCc1cccnc1 , what is its reported RT97-RGC axon density 11 days after ON transection (36 ON axon rescued)?
Reply: 15.8% ±4.8% SEM

Query: For CCC(C)(C)C(=O)C(=O)N1CCCC[C@H]1C(=O)SCCC(c1ccccc1)c1ccccc1 , what is its reported RT97-RGC axon density 11 days after ON transection (36 ON axon rescued)?
Reply: 13.0% ±4.2% SEM

Query: For CCC(C)(C)C(=O)C(=O)N1CCCC[C@H]1C(=O)O , what is its reported RT97-RGC axon density 11 days after ON transection (36 ON axon rescued)?
Reply: 34.0% ±4.8% SEM

Please examine the following record next.
Query: For O=C(SCCCc1ccccc1)C1CCCN1S(=O)(=O)Cc1ccccc1 (centres unmarked) , what is its reported RT97-RGC axon density 11 days after ON transection (36 ON axon rescued)?
Reply: 60.4% ±3.1% SEM

---

Documented Ki across a set of compounds
- Target: FKBP12 (Homo sapiens, UniProt P62942)
- Sequence (P62942 whole entry, species assumed): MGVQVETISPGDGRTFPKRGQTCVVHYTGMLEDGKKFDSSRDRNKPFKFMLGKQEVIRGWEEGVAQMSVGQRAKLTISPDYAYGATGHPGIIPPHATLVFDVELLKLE
- Procedure summary: Ki test procedure: inhibition of peptidyl-prolyl isomerase (rotamase) activity, chymotrypsin-coupled assay
- Type: biochemical
- Run parameters: apparent Ki, rotamase inhibition; read-out: Ki

Sample records with Ki:
Query: For O=C(SCCCc1cccnc1)[C@@H]1CCCN1C(=S)NC1CCCCC1 [Compound 7] , what is its reported Ki?
Reply: 0.051 to 0.2 µM

Query: For CCC(C)(C)NC(=O)N1CCCCC1C(=O)SCCCc1ccccc1 (centres unmarked) [Compound 11] , what is its reported Ki?
Reply: 0.051 to 0.2 µM

Query: For O=C(SCCCc1ccccc1)C1CCCCN1C(=O)Nc1ccccc1 (centres unmarked) [Compound 12] , what is its reported Ki?
Reply: 0.001 to 0.05 µM

Query: For O=C(SCCCc1cccnc1)C1CCCN1C(=O)NC1CCCCC1 (centres unmarked) [Compound 6] , what is its reported Ki?
Reply: 0.201 to 0.5 µM

Please examine the following record next.
Query: For O=C(SC(CCc1ccccc1)CCc1ccccc1)C1CCCCN1C(=S)NC1CCCCC1 (centres unmarked) [Compound 15] , what is its reported Ki?
Reply: 0.001 to 0.05 µM
